Reference for the values: PubChem BioAssay (NCI)

Exercise: for every item that follows, state its recorded growth.
Tested on: MDA-MB-468 breast
Test: NCI-60 one-dose screen, 48 h (100 = growth as untreated, 0 = no growth, -100 = all killed)
Conditions: 10 µM unless noted
Compounds without any hit were thinned out: in the full panel of roughly 83,000, 20% have a hit.
Note: unit % is implicit; provide only the numeric part.

Query: I'm curious: which growth was measured for O=[N+]([O-])c1ccc(/C(=C/c2ccccc2)[n+]2ccccc2)cc1 tested on MDA-MB-468 breast?
Response: 101

Query: API: value(readout=growth, system=MDA-MB-468 breast) for record COC(=O)/C(CCC=C(C)C)=C1\[C@@H](OC(C)=O)C[C@@]2(C)[C@H]1C[C@@H](O)[C@H]1[C@@]3(C)CC[C@H](NC(=O)c4cnccn4)[C@@H](C)[C@@H]3CC[C@@]12C
Response: 106

Query: Please state recorded growth (tested on MDA-MB-468 breast) of O=C(CCc1nnc2sc(/C=C\c3ccccc3)nn12)c1nc2ccccc2[nH]1
Response: 76.7

Query: Request body: readout growth, system MDA-MB-468 breast, query CCN(CC)CCO/N=C1\CC(c2ccc(OC)c(OC)c2)Oc2ccccc21 (centres undefined) . Return the value.
Response: 80.1

* * *

System: MDA-MB-468 breast
Experiment: NCI-60 one-dose screen, 48 h (100 = growth as untreated, 0 = no growth, -100 = all killed)
Details: 10 µM unless noted
The panel holds about 83,000 compounds, 20% with a hit somewhere; the sample as a whole holds those more often.
Please respond with reported growth for every item in the list.
# output: bare number, implied unit %

Query: Name the reported growth value associated with the compound CC(=O)N(CC(O)CO)c1c(I)c(C(=O)NCCO)c(I)c(C(=O)NCC(O)CO)c1I (stereo not given)
Response: 110

Query: Entry under review: CNC(=O)c1cc(Oc2ccc3nc(NC(=O)Nc4ccc(Cl)c(C(F)(F)F)c4)sc3c2)ccn1 . Reported growth?
Response: -5.09

Query: Entry C=C1c2c(C)nn(-c3ccc(OC)cc3)c2N(C)C23C[C@@H]1C1(C)c4c(C)nn(-c5ccc(OC)cc5)c4N(C)C(C)(C[C@H]12)C3 (stereo not given in full) has what growth?
Response: 31.9

Query: Give the measured growth of CCCCCN(CCCCC)C(=O)C(CCC(=O)O)NC(=O)c1ccc(Cl)c(Cl)c1 (stereo not given) .
Response: 106

Query: What value of growth has been recorded for this entry: CSc1nc(N)c(NS(=O)(=O)c2ccc(C(C)=O)cc2)c(=O)[nH]1
Response: 97

Query: Query (compound): CC1(C)C=Cc2cc(/C(N)=N/C(N)=N/c3nc4ccccc4s3)ccc2O1 ; field requested: growth
Response: 74.1

Query: Would you kindly share the measured growth for CN(C)C(=O)c1cc(-c2ccc3ncnc(NCc4ccccc4)c3c2)cnc1N ?
Response: 71.9

Query: Quick one: growth for NC(=S)N/N=C/c1ccc(OC(=O)COc2ccccc2)cn1 ?
Response: 29.7

Query: Please report the recorded growth for C=C1C(=O)O[C@H]2[C@H]1CC/C(COC(=O)c1cc(OC)c(OC)c(OC)c1)=C\CC[C@@]1(C)O[C@@H]21 .
Response: -33.2

Query: So what does the record say about growth for CC[C@H](C)C(=O)O[C@H]1C[C@@H](C)C=C2C=C[C@H](C)[C@H](CC[C@@H]3C[C@@H](O)CC(=O)O3)[C@H]21 ?
Response: 103

Query: Item under review: CCN(CC)CCC(CNc1c(C)cnc2cc(Cl)ccc12)c1ccc(Cl)cc1 (stereo not given) . Reported growth?
Response: 19.3

Query: For the compound COc1ccccc1C(C[N+](=O)[O-])c1c(-c2ccccc2)[nH]c2cc(C)ccc12 (stereo not given) , what growth is on record?
Response: 44.4

Query: Would you mind telling me what growth value was observed for CC(C)(C)c1ccc(O)c(Cc2cc(C(C)(C)C)ccc2O)c1 ?
Response: 119

Query: State the recorded growth for this entry: CN1CCN(Cc2ccc(NC(=O)c3cncc(C#Cc4cncn5ccnc45)c3)cc2C(F)(F)F)CC1
Response: 125

Query: What does the data say about its growth? Entry: CCOC(=O)Nc1ccc2c(c1)C(=O)N(CCOC)c1ccccc1O2
Response: 20.2

Query: Entry under review: NCCCOc1cc2ccccc2cc1C(=O)NCCCOc1cc2ccccc2cc1C(=O)Nc1ccc(Cl)cc1O . Reported growth?
Response: -89.6

Query: Name the reported growth value associated with the compound O=[N+]([O-])c1ccc(N=Nc2c(Cl)cc(O)cc2Cl)cc1
Response: -11.7

Query: Can you share its growth? I mean this compound: COc1cnc2c(c1)C(=O)c1c-2n(CCCN2CCCC2)c(=O)c2cc([N+](=O)[O-])ccc12
Response: -41.1

Query: I have this compound here, O=C(Nc1ccccc1O)c1ccccc1Nc1ccnc(C(F)(F)F)c1 , and I need its recorded growth.
Response: 116

Query: Recorded growth for c1ccc(C(CC2=NCCCN2)c2ccccc2)cc1 , please?
Response: 102

* * *

Test system: MDA-MB-468 breast
Assay: NCI-60 one-dose screen, 48 h
Details: 10 µM unless noted
The panel holds about 83,000 compounds, 20% with a hit somewhere; the sample as a whole holds those more often. Activity calls are given as the source filed them. How the source made its calls: active means growth percent below 10; inactive means the rest.
Response enum: active, inactive

Query: Tell me the assay call for C=CC(=O)OCCCCCCCC please.
Response: inactive

Query: Lab log entry: CCOC(=O)C1=C(N)Oc2cc(OC)ccc2C1c1ccc(F)c(F)c1 (stereo not drawn) — outcome as called in the assay?
Response: active

Query: Outcome logged for Nc1cc(Br)c(-c2nn3c(CCC(=O)c4nc5ccccc5[nH]4)nnc3s2)c(Br)c1 in this assay:
Response: inactive

Query: What call does the record list for [2H]C([2H])([2H])Oc1ccc(/C=C/C(=O)/C=C(/C=C/c2ccc(OC([2H])([2H])[2H])c(OC([2H])([2H])[2H])c2OC([2H])([2H])[2H])OB(F)F)c(OC([2H])([2H])[2H])c1OC([2H])([2H])[2H] ?
Response: inactive

Query: Record lookup: outcome of this test for COc1cc(C2=NN(C(C)=O)C(c3ccc(OC(C)=O)cc3OC(C)=O)O2)c(OC(C)=O)c2ccccc12 (stereo not drawn) ?
Response: active

Query: Called result for O=C(CCCC(=O)N/N=C/c1cc(Cl)ccc1O)N/N=C\c1cc(Cl)ccc1O
Response: inactive

Query: What call does the record list for c1nc(N2CCOCC2)c2[nH]ccc2n1 ?
Response: inactive

Query: Recorded call for COc1ccc(Nc2[nH]n(C3=Nc4ccccc4Sc4ccccc43)c(=O)c2C#N)cc1 ?
Response: active

Query: Entry COc1ccc([C@@H]2[C@@H](O)C(=O)N2c2cc(OC)c(OC)c(OC)c2)cc1F : call = ?
Response: active

Query: Please share the test call associated with COc1ccc2nc(N=Nc3c(O)ccc4ccccc34)sc2c1 .
Response: inactive

Query: What call does the record list for Cc1ccc(C(=O)N(CCCN)[C@@H](c2nc3cc(Cl)ccc3c(=O)n2Cc2ccccc2)C(C)C)cc1 ?
Response: active

Query: Please state the recorded outcome for this compound: COc1cc(NCC(O)CN(CC(C)C)CC(C)C)c2nc(C)ccc2c1 (stereo not drawn)
Response: active

Query: Any idea what this test logged for O=C(c1ccccc1)C(Br)[N+](=O)[O-] (stereo not drawn) ?
Response: inactive

Query: Outcome logged for O=C(CCC(=O)c1nc2ncccc2[nH]1)NN1C(=O)CSC1c1ccc(Cl)cc1 (stereo not drawn) in this assay:
Response: inactive

Query: Could you please tell me the result logged for CS(=O)c1nccc(-c2c(-c3ccc(F)c(OCc4ccccc4)c3)nc3sccn23)n1 (stereo not drawn) in this assay?
Response: active

Query: How was OC(CNC1CCCCC1)Cn1c2ccc(I)cc2c2cc(I)ccc21 (stereo not drawn) classified in this test?
Response: inactive

Query: Test call, this compound: Cc1ccccc1NC1CC(=O)N(c2ccc(Cl)cc2Cl)C1=O (stereo not drawn)
Response: inactive

Query: Hello, I am checking results. What call was entered for CN(C)C(=O)SC1=C(c2c(Cl)cccc2Cl)C(=O)c2ccccc21 ?
Response: active

Query: Status in this test for O=C(CC(=O)c1ccccc1O)c1ccccc1 ?
Response: inactive

Query: So what was the verdict on c1ccc(-c2cn3c(-c4c[nH]c5ccccc45)csc3n2)cc1 in this test?
Response: active

Query: // return assay outcome for O=C(Nc1ccc(Oc2cccc(Cl)c2)c(Cl)c1)c1cccnn1
Response: inactive

Query: Record lookup: outcome of this test for CCNC(=O)c1ccc2c(c1)nc(-c1ccc(Cl)cc1)n2-c1cc(C(C)(C)C)[nH]n1 ?
Response: inactive

Query: Short answer needed: outcome of this test for CC1(O)COCCCCOc2c(CN)cccc2NC(=O)c2nc(cnc2N)-c2ccc(cc2)S(=O)(=O)C(C)(C)C1 (stereo not drawn) ?
Response: active

Query: Lab log entry: CCN(CCO)CCC(=O)c1ccc([N+](=O)[O-])cc1 — outcome as called in the assay?
Response: inactive

Query: Entry O=C(Nc1cc(Cl)cc2c1-c1ccc(Cl)cc1C2O)C(Cl)Cl (stereo not drawn) : call = ?
Response: active

Query: // param item: CCCCCCCCCCCCCC1=NC(C)(C)CN1C(C)C ; yields the recorded call
Response: active

Query: Field: outcome | Entry: C#CC[C@@H]1C[C@]2(C)[C@H]3CC[C@@H]4[C@H]5C(C(=C)C)CC[C@]5(C(=O)NCCCN5CCN(CCCN)CC5)CC[C@@]4(C)[C@]3(C)CC[C@H]2C(C)(C)[C@H]1OC(C)=O (stereo partly drawn)
Response: active

Query: Hey, what did the test say about CCOC(=O)c1cc2c(n1Cc1cc(OC)c(OC)c(OC)c1)-c1nc(N)sc1CCC2 ?
Response: inactive

Query: // return assay outcome for Cc1cccc(C)c1NCc1nnc(-c2ccco2)o1
Response: inactive

Query: Which result was noted for this compound in the test: O=C(c1nc2ccccc2[nH]1)C1C(c2ccc(F)cc2)C2CC3CCCCC3N2[C@@]12C(=O)Nc1ccc(Cl)cc12 (stereo partly drawn)
Response: inactive

Query: Look up the recorded call for COC(=O)CNC(=O)[C@@H](OC)[C@@H]1Cc2cc3cc(OC4CC(OC5CC(O)C(O)C(C)O5)C(O)C(C)O4)c(C)c(O)c3c(O)c2C(=O)[C@H]1OC1CC(OC2CC(OC3CC(C)(O)C(O)C(C)O3)C(O)C(C)O2)C(O)C(C)O1 (stereo partly drawn) in this test.
Response: active

Query: Write down the call the test reported for this compound. Item: Cc1c(NC(=O)OC[C@@H]2COCCN2)cn2ncnc(Nc3ccc4c(cnn4Cc4cccc(F)c4)c3)c12
Response: active

Query: # outcome recorded in this test, key = CCCCCCCCCCCC[n+]1ccc2ccccc2c1
Response: active

Query: Test call, this compound: CC1(C)CC[C@]23CC[C@]4(C)[C@H](CC[C@@H]5[C@@]6(C)CC[C@H](NCO)C(C)(C)[C@@H]6CC[C@]54C)[C@H]2[C@H]1OC3
Response: active

Query: // param item: Cc1cccc(NC(=O)CCc2ccc(N3C(N)=NC(N)=NC3(C)C)cc2)c1 ; yields the recorded call
Response: inactive

Query: Test call, this compound: Fc1ccc(-c2cnc3nonc3n2)c(F)c1
Response: inactive

Query: What did this assay record as the result for CN(C)CCCNC(=O)C(c1ccccc1)c1ccccc1 ?
Response: inactive

Query: Could you check what this test reported for Cc1ccc(-c2csc3nc(C)c(CCCl)c(=O)n23)cc1 ?
Response: inactive
